Test system: ZR-75-1
Test details: relative IC50 (midpoint of fitted logistic curve, plateau may be below 50% inhibition; CellTiter-Glo viability); higher = less potent
Condition notes: 4-OH-tamoxifen in medium 1 µM; 72 h
# relative IC50 per entry

Below: 6 molecules and their reported relative IC50.
| Molecule | Observed property | Recorded result |
| --- | --- | --- |
| CS(=O)(=O)OCCCCOS(C)(=O)=O | relative IC50 | > 100000 nM |
| C[C@]12C=CC(=O)C=C1CC[C@@H]1[C@@H]2[C@@H](O)C[C@@]2(C)[C@H]1CC[C@]2(O)C(=O)CO | relative IC50 | > 10000 nM |
| O=C(CCCCCCC(=O)Nc1ccccc1)NO | relative IC50 | 3660 nM |
| O=C1CN2Cc3c(ccc(Cl)c3Cl)N=C2N1 [Anagrelide] | relative IC50 | > 10000 nM |
| C=CC(=O)N1CCC[C@@H](n2nc(-c3ccc(Oc4ccccc4)cc3)c3c(N)ncnc32)C1 | relative IC50 | > 1000 nM |
| Cn1cc(C2=Nc3cc(NC(=O)C(N)C4CCCCC4)cc4c3C2=CNNC4=O)cn1 (centres undefined) | relative IC50 | > 10000 nM |

Consider the molecule Cc1cn(-c2cc(NC(=O)c3ccc(C)c(Nc4nccc(-c5cccnc5)n4)c3)cc(C(F)(F)F)c2)cn1 and give its recorded relative IC50. > 10000 nM

Consider the molecule CC(C)(C)c1cc(NC(=O)Nc2ccc(-c3cn4c(n3)sc3cc(OCCN5CCOCC5)ccc34)cc2)no1 and give its recorded relative IC50. > 1000 nM

Consider the molecule COc1nc(N)nc2c1ncn2[C@@H]1O[C@H](CO)[C@@H](O)[C@@H]1O and give its recorded relative IC50. > 10000 nM

The measurements presented in this section are drawn from the supplement of paper PMC4932681.
